Data provenance is ChEMBL document CHEMBL1149970.

Tested on: Enterococcus faecalis
RUN DESCRIPTION: In vitro antibacterial activity against Enterococcus faecalis MB4996 organism
Type: functional

| MOLECULE | SYSTEM NAME | MIC, µg/mL |
| --- | --- | --- |
| C[C@@H](O)[C@H]1C(=O)N2C(C(=O)O)=C(SCCNC=N)C[C@H]12 [IMIPENEM ANHYDROUS] | Enterococcus faecalis | 0.78 |
| C[C@@H](O)[C@H]1C(=O)N2C(C(=O)[O-])=C(SC(=S)N3CC[N+](C)(C)CC3)[C@H](C)[C@H]12 | Enterococcus faecalis | 1.56 |
| C[C@@H](O)[C@H]1C(=O)N2C(C(=O)O)=C(SC(=S)N3CCC3)[C@H](C)[C@H]12 | Enterococcus faecalis | 6.25 |
| C[C@@H](O)[C@H]1C(=O)N2C(C(=O)O)=C(SC(=S)N(C)Cc3cccc4ccccc34)[C@H](C)[C@H]12 | Enterococcus faecalis | 1.56 |
| C[C@@H](O)[C@H]1C(=O)N2C(C(=O)O)=C(SC(=S)N(C)CCO)[C@H](C)[C@H]12 | Enterococcus faecalis | 6.25 |
| C[C@@H](O)[C@H]1C(=O)N2C(C(=O)O)=C(SC(=S)N3CC(O)C3)[C@H](C)[C@H]12 | Enterococcus faecalis | 12.5 |
| CCN(CC)C(=S)SC1=C(C(=O)O)N2C(=O)[C@H]([C@@H](C)O)[C@H]2[C@H]1C | Enterococcus faecalis | 12.5 |
| C[C@@H](O)[C@H]1C(=O)N2C(C(=O)O)=C(SC(=S)N(C)C)[C@H](C)[C@H]12 | Enterococcus faecalis | 12.5 |
| C[C@@H](O)[C@H]1C(=O)N2C(C(=O)O)=C(SC(=S)N3CCC(O)C3)[C@H](C)[C@H]12 (stereo not given in full) | Enterococcus faecalis | 6.25 |
| C[C@@H](O)[C@H]1C(=O)N2C(C(=O)O)=C(SC(=S)N3CCN(C)CC3)[C@H](C)[C@H]12 | Enterococcus faecalis | 6.25 |
| C=CCN(CCCO)C(=S)SC1=C(C(=O)O)N2C(=O)[C@H]([C@@H](C)O)[C@H]2[C@H]1C | Enterococcus faecalis | 6.25 |
| C[C@@H](O)[C@H]1C(=O)N2C(C(=O)O)=C(SC(=S)N3CCCCC3)[C@H](C)[C@H]12 | Enterococcus faecalis | 6.25 |
| C[C@@H](O)[C@H]1C(=O)N2C(C(=O)[O-])=C(SC(=S)N3CC[N+](C)(Cc4ccccc4)CC3)[C@H](C)[C@H]12 | Enterococcus faecalis | 1.56 |
| C[C@@H](O)[C@H]1C(=O)N2C(C(=O)O)=C(SC(=S)N3CCCC(O)CC3)[C@H](C)[C@H]12 (stereo not given in full) | Enterococcus faecalis | 3.13 |
| C[C@@H](O)[C@H]1C(=O)N2C(C(=O)O)=C(SC(=S)N3CCC(O)CC3)[C@H](C)[C@H]12 | Enterococcus faecalis | 6.25 |
